Target: T1, HMGE (His6-MBP-TEV-Gly5-EsaR wild type) (Pantoea stewartii subsp. stewartii, UniProt P54293 1-249)
T1 sequence: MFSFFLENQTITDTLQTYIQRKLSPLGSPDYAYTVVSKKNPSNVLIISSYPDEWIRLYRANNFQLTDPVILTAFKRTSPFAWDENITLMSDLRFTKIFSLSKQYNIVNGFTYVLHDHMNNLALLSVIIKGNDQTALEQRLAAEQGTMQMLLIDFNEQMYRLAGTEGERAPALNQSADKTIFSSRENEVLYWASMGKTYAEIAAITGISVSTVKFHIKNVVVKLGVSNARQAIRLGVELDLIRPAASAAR
Assay: fluorescence anisotropy; no AHL; 150 mM NaCl, 6 mM HEPES, 17.5 mM Tris, 3% glycerol, pH 7.6, 25 C, 20 min; 3 nM T-esabox, 0-100 nM protein
Conditions: protein: recombinant; tags: N-terminal His6-MBP-TEV-Gly5; chain copies: 2; label: 5' TAMRA on strand 1; blunt
observable: pKd
# pKd = -log10(concentration in molar units)

// pKd value for T-esabox (PesaR28 TAMRA/PesaR28R) (dsDNA) DNA 1: TCTTGCCTGTACTATAGTGCAGGTTAAG DNA 2: CTTAACCTGCACTATAGTACAGGCAAGA : 8.51
